System: FaDu cell line
assay.explanation: Prodrug Activation in Hypoxic Stirred Tumour Cell Suspensions
condition.set: 10 μM, 4 hours, 0.2% O2
parameter.measured: Fraction of prodrug converted to active form, Hypoxic 0.2% O2

Example entries begin here.
>>> result("CC(c1cnc([N+](=O)[O-])n1C)N(c1cnc2cc(N3CCOCC3)nc(OC3CCC(Nc4ncc(N5CCN(CC(F)(F)F)CC5)cn4)CC3)c2c1)S(C)(=O)=O (centres unmarked)")
"D (D is 0 to 0.02)"
>>> result("CC(c1cnn(C)c1[N+](=O)[O-])N(c1cnc2cc(N3CCOCC3)nc(O[C@H]3CC[C@@H](Nc4ncc(OCCN(C)C)cn4)CC3)c2c1)S(C)(=O)=O (some centres unmarked)")
"B (B is 0.05 to 0.15)"
>>> result("CC(c1cnc([N+](=O)[O-])n1C)N(c1cnc2cc(N3CCOCC3)nc(O[C@H]3CC[C@@H](Nc4ncc(CCN5CCOCC5)cn4)CC3)c2c1)S(C)(=O)=O (some centres unmarked)")
"B (B is 0.05 to 0.15)"
>>> result("CC(c1cnc([N+](=O)[O-])n1C)N(c1cnc2cc(N3CCOCC3)nc(O[C@H]3CC[C@@H](Nc4ncc(OCCN5CCN(C)CC5)cn4)CC3)c2c1)S(C)(=O)=O (some centres unmarked)")
"A (A is 0.15 to 1)"

Ask | Look up FaDu cell line data: Fraction of prodrug converted to active form, Hypoxic 0.2% O2 of `Cn1c(CN(c2cnc3cc(N4CCOCC4)nc(O[C@H]4CC[C@@H](Nc5cncc(C(F)(F)F)n5)CC4)c3c2)S(C)(=O)=O)cnc1[N+](=O)[O-]` , then report it.
Reply | C (C is 0.02 to 0.05)

Ask | Look up FaDu cell line data: Fraction of prodrug converted to active form, Hypoxic 0.2% O2 of CC(Oc1cnc2cc(N3CCOCC3)nc(O[C@H]3CC[C@@H](c4cnccn4)CC3)c2c1)c1cnc([N+](=O)[O-])n1C (some centres unmarked) , then report it.
Reply | A (A is 0.15 to 1)

Ask | Look up FaDu cell line data: Fraction of prodrug converted to active form, Hypoxic 0.2% O2 of `Cn1c(Cn2nnc(-c3cnc4cc(N5CCOCC5)nc(O[C@H]5CC[C@@H](Nc6ncccn6)CC5)c4c3)n2)cnc1[N+](=O)[O-]` , then report it.
Reply | A (A is 0.15 to 1)

Ask | Look up FaDu cell line data: Fraction of prodrug converted to active form, Hypoxic 0.2% O2 of CC(Oc1cnc2cc(N3CCOCC3)nc(O[C@H]3CC[C@@H](Nc4ncc(OCCN5CCOCC5)cn4)CC3)c2c1)c1cnc([N+](=O)[O-])n1C (some centres unmarked) , then report it.
Reply | A (A is 0.15 to 1)

Ask | Look up FaDu cell line data: Fraction of prodrug converted to active form, Hypoxic 0.2% O2 of CC(c1cnn(C)c1[N+](=O)[O-])N(c1cnc2cc(N3CCOCC3)nc(O[C@H]3CC[C@@H](Nc4ncc(OCCN5CCOCC5)cn4)CC3)c2c1)S(C)(=O)=O (some centres unmarked) , then report it.
Reply | B (B is 0.05 to 0.15)

Ask | Look up FaDu cell line data: Fraction of prodrug converted to active form, Hypoxic 0.2% O2 of `Cn1c(COc2cnc3cc(N4CCOCC4)nc(O[C@H]4CC[C@@H](Nc5ncccn5)CC4)c3c2)cnc1[N+](=O)[O-]` , then report it.
Reply | A (A is 0.15 to 1)

Ask | Look up FaDu cell line data: Fraction of prodrug converted to active form, Hypoxic 0.2% O2 of Cn1c(CN(c2cnc3cc(N4CCOCC4)nc(OC4CCC(Nc5ncc(N6CCN(CC(F)F)CC6)cn5)CC4)c3c2)S(C)(=O)=O)cnc1[N+](=O)[O-] (centres unmarked) , then report it.
Reply | B (B is 0.05 to 0.15)

Ask | Look up FaDu cell line data: Fraction of prodrug converted to active form, Hypoxic 0.2% O2 of CC(c1cnc([N+](=O)[O-])n1C1CC1)N(c1cnc2cc(N3CCOCC3)nc(OC3CCC(Nc4ccn5nccc5n4)CC3)c2c1)S(C)(=O)=O (centres unmarked) , then report it.
Reply | A (A is 0.15 to 1)

Ask | Look up FaDu cell line data: Fraction of prodrug converted to active form, Hypoxic 0.2% O2 of Cn1c(Cn2cnnc2-c2cnc3cc(N4CCOCC4)nc(OC4CCC(Nc5ncccn5)CC4)c3c2)cnc1[N+](=O)[O-] (centres unmarked) , then report it.
Reply | D (D is 0 to 0.02)

Ask | Look up FaDu cell line data: Fraction of prodrug converted to active form, Hypoxic 0.2% O2 of `Cn1c(COc2cnc3cc(N4CCOCC4)nc(O[C@H]4CC[C@@H](NC(=O)c5ncccn5)CC4)c3c2)cnc1[N+](=O)[O-]` , then report it.
Reply | A (A is 0.15 to 1)

Ask | Look up FaDu cell line data: Fraction of prodrug converted to active form, Hypoxic 0.2% O2 of CC(c1cnc([N+](=O)[O-])n1C)N(c1cnc2cc(N3CCOCC3)nc(O[C@H]3CC[C@@H](Nc4ncc(OCCN5CCOCC5)cn4)CC3)c2c1)S(C)(=O)=O (some centres unmarked) , then report it.
Reply | B (B is 0.05 to 0.15)

====

assay.explanation: Pharmacokinetic study in male Sprague-Dawley rats (IV and PO), plasma
Format: in vivo, rat
condition.set: male, Sprague-Dawley; rat plasma, PO, 30 mg/kg
parameter.measured: AUC(0-t) (ng·h/mL)

>>> quantitative_result("O=C(COc1cnc(N[C@H]2CC[C@@H](Oc3nc(N4CCOCC4)cc4ncccc34)CC2)nc1)N1CCOCC1 [Compound 61]")
5760

(I) CN1CCN(CCOc2cnc(N[C@H]3CC[C@@H](Oc4nc(N5CCOCC5)cc5ncccc45)CC3)nc2)CC1 [Compound 69]
(II) CN(C)C(=O)Cn1ccc2nc(N[C@H]3CC[C@@H](Oc4nc(N5CCOCC5)cc5ncccc45)CC3)ncc21 [Compound 86]
Ask | Lab note: check whether I or II has the lower measured AUC(0-t). Provide the label of your selected option as the answer.
Reply | I

====

assay.explanation: Pharmacokinetic study in mice (IV and PO), plasma
Type: in vivo, mouse
condition.set: female, C57BL/6; mouse plasma, IV, 3 mg/kg; read-out: AUCINF_obs
parameter.measured: AUC(0-inf) (ng·h/mL)

>>> quantitative_result("CN(C)C(=O)Cn1c(=O)n(C2CCOCC2)c2nc(N[C@H]3CC[C@@H](Oc4nc(N5CCOCC5)cc5ncccc45)CC3)ncc21")
4380
>>> quantitative_result("O=C(COc1cnc(N[C@H]2CC[C@@H](Oc3nc(N4CCOCC4)cc4ncccc34)CC2)nc1)N1CCOCC1")
5340

====

Tested on: FaDu cell line
assay.explanation: Prodrug Activation in Hypoxic Stirred Tumour Cell Suspensions
condition.set: 10 μM, 4 hours, 0.2% O2
parameter.measured: Fraction of prodrug converted to active form, Hypoxic 0.2% O2

Example entries begin here.
>>> result("CN1CCN(c2cnc(N[C@H]3CC[C@@H](Oc4nc(N5CCOCC5)cc5ncc(N(Cc6cnn(C)c6[N+](=O)[O-])S(C)(=O)=O)cc45)CC3)nc2)CC1")
"B (B is 0.05 to 0.15)"
>>> result("CN(C)CCOc1cnc(N[C@H]2CC[C@@H](Oc3nc(N4CCOCC4)cc4ncc(OCc5cnc([N+](=O)[O-])n5C)cc34)CC2)nc1")
"B (B is 0.05 to 0.15)"
>>> result("CC(c1cnc([N+](=O)[O-])n1C)N(c1cnc2cc(N3CCOCC3)nc(O[C@H]3CC[C@@H](Nc4cncc(C(F)(F)F)n4)CC3)c2c1)S(C)(=O)=O (stereo partly drawn)")
"B (B is 0.05 to 0.15)"
>>> result("Cc1cc(C)nc(N[C@H]2CC[C@@H](Oc3nc(N4CCOCC4)cc4ncc(OCc5cnc([N+](=O)[O-])n5C)cc34)CC2)n1")
"B (B is 0.05 to 0.15)"

Consider the record given below.
Ask | Input Cc1cc(C#N)nc(N[C@H]2CC[C@@H](Oc3nc(N4CCOCC4)cc4ncc(OC(C)c5cnc([N+](=O)[O-])n5C)cc34)CC2)n1 (stereo partly drawn) , output reported Fraction of prodrug converted to active form, Hypoxic 0.2% O2.
Reply | B (B is 0.05 to 0.15)

====

target.of.assay: DNA-PK (Homo sapiens, UniProt P78527)
Construct: purchased Invitrogen PR9107A
assay.explanation: DNA-PK Assay for Biochemical Enzymatic Inhibition (ADP Glo Kinase assay)
condition.set: DNA-PK enzyme, Table 1
parameter.measured: IC50

>>> result("CCCS(=O)(=O)NC(=O)c1cnc2cc(N3CCOCC3)nc(O[C@H]3CC[C@@H](n4ccnc4)CC3)c2c1 [Compound 173]")
"1 to 10 nM"
>>> result("CCOC(=O)c1cnc(NC2CCOCC2)nc1N[C@H]1CC[C@@H](Oc2nc(N3CCOCC3)cc3ncccc23)CC1 [Compound 93]")
"10 to 150 nM"
>>> result("O=C(COc1cnc(N[C@H]2CC[C@@H](Oc3nc(N4CCOCC4)cc4ncccc34)CC2)nc1)N1CCC1 [Compound 75]")
"< 0.5 nM"
>>> result("Cn1c(=O)[nH]c2cnc(N[C@H]3CC[C@@H](Oc4nc(N5CCOCC5)cc5ncccc45)CC3)nc21 [Compound 100]")
"< 0.5 nM"

Consider the record given below.
Ask | Input CN(C)C(=O)Cn1ccc(C(=O)N[C@H]2CC[C@@H](Oc3nc(N4CCOCC4)cc4ncccc34)CC2)c1 [Compound 141] , output reported IC50.
Reply | < 0.5 nM
